Tested on: MOLT-4 leukemia
Experiment: NCI-60 one-dose screen, 48 h (100 = growth as untreated, 0 = no growth, -100 = all killed)
Conditions: 10 µM unless noted
This is part of a sample that, as a whole, favours compounds with a hit. Of some 83,000 tested, about 20% had one in any assay. The source made the active and inactive calls. Rule for the calls: active = growth percent below 10; inactive = the rest.
Here the recorded growth is given for each entry.

{"compound": "Cc1ccc2nc3c(n2c1)C(=O)C(=O)c1ccccc1-3", "growth": "-70.8% (active)"}
{"compound": "Oc1c(Cl)cc(Cl)c(Cl)c1Cc1c(O)c(Cl)cc(Cl)c1Cl", "growth": "11.1% (inactive)"}
{"compound": "CC(=O)Nc1ccc(C(=O)COc2ccc(/C=C3\\CCc4ccccc4C3=O)cc2)cc1", "growth": "78.8% (inactive)"}
{"compound": "CC1CN(/N=C/c2ccc([N+](=O)[O-])o2)C(=N)O1 (stereo not drawn)", "growth": "107% (inactive)"}
{"compound": "OCCCc1n(Cc2ccc3ccccc3c2)c2ccccc2[n+]1Cc1ccc2ccccc2c1", "growth": "19.7% (inactive)"}
{"compound": "COc1cc(C2CC(C3C(=O)N(C)C(=O)N(C)C3=O)=NN2c2cc(Cl)cc(Cl)c2)cc(OC)c1OC (stereo not drawn)", "growth": "88.9% (inactive)"}
{"compound": "C[C@@H]1C[C@@H]([C@@H](CC2CC(=O)NC(=O)C2)OC(=O)CC(=O)c2ccccc2)C(=O)[C@@H](C)C1", "growth": "9.81% (active)"}
{"compound": "OCc1n(Cc2ccc3ccccc3c2)cc[n+]1Cc1ccc2ccccc2c1", "growth": "47.5% (inactive)"}
{"compound": "CC1Cc2ccccc2N1C(=O)c1ccc(C(=O)c2ccccc2)cc1 (stereo not drawn)", "growth": "91.5% (inactive)"}
{"compound": "O=C(COc1ccc(/C=C2\\Oc3ccc4ccccc4c3C2=O)cc1)c1ccc([N+](=O)[O-])cc1", "growth": "20.4% (inactive)"}
{"compound": "CCOc1cc(/C=C/C(=O)C(C(=O)/C=C/c2ccc(OC(=O)CNc3nnc(C)s3)c(OCC)c2)C(=O)CNc2nnc(C)s2)ccc1OC(=O)CNc1nnc(C)s1", "growth": "-34.3% (active)"}
{"compound": "O=c1c2c(=NCCCN3CCCC3)cc3c(=O)n(CCCN4CCCC4)c(=O)c4c(NCCCN5CCCC5)cc(c(O)n1CCCN1CCCC1)c2c4-3", "growth": "16.5% (inactive)"}
{"compound": "N#CSCC1CC(O)(c2ccccc2)C(c2ccccc2)C(c2ccc(Cl)cc2)O1 (stereo not drawn)", "growth": "-10% (active)"}
{"compound": "COC(=O)CC1=C(c2ccc([N+](=O)[O-])cc2)CCC1=O", "growth": "104% (inactive)"}
{"compound": "Nc1ccccc1-c1ccn[nH]1", "growth": "98.7% (inactive)"}
{"compound": "CCOC(=O)C1C(=O)NC(C(=O)OCC)(C(=O)OCC)C1CC (stereo not drawn)", "growth": "113% (inactive)"}
{"compound": "C/C(=C\\CCc1ccoc1)CC/C=C(\\C)CCCNc1ccc(F)cc1", "growth": "59.6% (inactive)"}
{"compound": "CCCCCc1c(C)[nH]c(/C=C2\\N=C(c3ccc[nH]3)C=C2Oc2ccccc2)c1C", "growth": "-40.2% [100 µM] (active)"}

Hello, the source for this data is PubChem BioAssay (NCI), in case you need it.
